Biological target: T1, Recombinant hIL-36R protein (Acrobio, Cat #IL2-H52H6) (human, UniProt Q9HB29 20-335)
T1 construct: Bought soluble protein; also called recombinant human IL-36R protein
T1 sequence: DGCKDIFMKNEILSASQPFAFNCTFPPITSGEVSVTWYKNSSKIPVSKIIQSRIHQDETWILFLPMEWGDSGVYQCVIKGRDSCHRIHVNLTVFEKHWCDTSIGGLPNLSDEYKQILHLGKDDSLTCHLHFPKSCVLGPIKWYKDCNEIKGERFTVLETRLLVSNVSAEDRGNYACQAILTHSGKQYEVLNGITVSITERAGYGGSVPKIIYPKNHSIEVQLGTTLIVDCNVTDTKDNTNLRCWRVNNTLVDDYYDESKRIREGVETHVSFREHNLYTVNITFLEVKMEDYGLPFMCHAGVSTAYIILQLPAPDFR
Test: BLI (Gator)
For each entry below, report its Kd value.

Qu. Find the recorded Kd belonging to 5F7-2a6 (antibody, human IgG4 S228P, kappa, V domains shown) VH: EVQLVESGGGLVKPGGSLRLSCAASGFDFTDYYMNWVRQAPGKGLEWVALIRNKAAGYTIYYSAPVKGRFTISRDDSKSTLYLQMNSLKTEDTAVYYCVRDMTIYDGYYVDYALDYWGQGTLVTVSS VL: DIVMTQSPSSVSASVGDRVTITCRASRNINIWLSWYQQKPGKAPKLFIYKASNLHTGVPSRFSGSGSGTDFTLTISSLQPEDFATYYCLQSQSYPLTFGQGTKLEIKR and report it.
Ans. < 0.1 nM

Qu. Find the recorded Kd belonging to 5F7-2a1 (antibody, human IgG4 S228P, kappa, V domains shown) VH: EVQLVESGGGLVKPGGSLRLSCAASGFDFTDYYMHWVRQAPGKGLEWVALIRNKAAGYTIYYSAPVKGRFTISRDDSKSTLYLQMNSLKTEDTAVYYCVRDMTIYDGYYVDYALDYWGQGTLVTVSS VL: DIVMTQSPSSVSASVGDRVTITCRASRNINIWLSWYQQKPGKAPKLFIYKASNLHTGVPSRFSGSGSGTDFTLTISSLQPEDFATYYCLQSQSYPLTFGQGTKLEIKR and report it.
Ans. < 0.1 nM

Qu. Find the recorded Kd belonging to 5F7-2h1 (antibody, human IgG4 S228P, kappa, V domains shown) VH: EVQLVESGGGLVKPGGSLRLSCAASGYAFTDYYMNWVRQAPGKGLEWVALIRNKAAGYTIYYSAPVKGRFTISRDDSKSTLYLQMNSLKTEDTAVYYCVRDMTIYDGYYVDYALDYWGQGTLVTVSS VL: DIVMTQSPSSVSASVGDRVTITCRASRNINIWLSWYQQKPGKAPKLFIYKASNLHTGVPSRFSGSGSGTDFTLTISSLQPEDFATYYCLQSQSYPLTFGQGTKLEIKR and report it.
Ans. < 0.1 nM

All values here come from patent US20250002593A1.
